# assayed system: SARS-CoV-2 Omicron (B.1.1.529) RBD (SARS-CoV-2 Omicron B.1.1.529 (BA.1), strain)
quantity name: binding result

INPUT: Indicate the recorded binding result value for this binder: BD55-1104 (antibody, V domains shown) VH: EVQLVQSGAEVKKPGESLKISCKGSGYSFTTYWTGWVRQVPGKGLEWMGLIYPRDSDARYTPSFEGHVTISADNSINTAYLHWSSLKASDTAIYYCVSAGDTGWRGHADYWGQGTLVTVSS VL: DIQMTQSPSSLSASVGDRVTITCRASLDIRNYLVWFQQKPGTAPKSLIYEASTLQSGVPSRFSGSGSGTDFTLTISSLRPEDFATYYCQQYNTWPFTFGGGTKVEIK
OUTPUT: binds

INPUT: Indicate the recorded binding result value for this binder: COV2-2381 (antibody, V domains shown) VH: QMQLVQSGPEVKKPGTSVKVSCKASGFTFTSSAVQWVRQARGQRLEWIGWIAVGSGNTNYAQKFQERVSITRDMSTSTAYMELSSLRSEDTAVYYCAAPYCSRTSCHDAFDIWGQGTKVTVSS VL: EVVLTQSPGTLSLSPGERATLSCRASQSVSSSYLAWYQQKPGQAPRLLIYGASSRATGIPDRFSGSGSGTDFTLTISRLEPEDFAVYHCQHFGSSSQWTFGQGTKVEIK
OUTPUT: binds

INPUT: Indicate the recorded binding result value for this binder: COV2-2103 (antibody, V domains shown) VH: EVQLVESGGGLVQPGGSLRLSCAASGFTFSRHWMTWVRQAPGKGLEWVANIKQDGSEKYYVDSVKGRLTISRDNAKNSLYLQMNSLRAEDTAVYYCARLGFYYGGADYWGQGTLVTVSS VL: NFMLTQPHSVSESPGKTVTISCTGSSGSIASNYVQWYQQRPGSAPTTVISEDNQRPSGVPDRFSGSIDSSSNSASLTISGLKTEDEADYYCQSYDGINRAWVFGGGTKLTVL
OUTPUT: binds
